Target of assay: T1, (PA)15: H-C(PA)15-OH
T1 construct: synthetic, not coupled to BSA; also called poly-PA DPR protein peptide
T1 peptide: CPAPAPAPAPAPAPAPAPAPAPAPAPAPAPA
Test method notes: indirect ELISA, coated peptide
Endpoint name: binding result

INSERT INTO measurements (binder, observed) VALUES
  ('NI-308.18F7 (antibody, V domains shown, Recombinant complete human IgG1, kappa) VH: QVQLQESGPGLVKPSETLSVTCTVSGGSINDYYWNWIRQPAGKGLEWIGRIYASGTINYNPSLQSRVTMSIDTSKNQFSLDLISVSAADTAVYYCARWGQVVGDYYYGMDVWGQGTTVTVSS VL: EIVLTQSPLSLSVTPGEPASISCKSSQSLQHTNGYNYLDWYLLKPGQSPQLLIFLTSNRASGVPDRFSGSGSGTNFTLKISRVEAEDVGVYYCMEGIQLWTFGQGTKLEIK', 'no binding'),
  ('NI-308.15O7 (antibody, V domains shown) VH: QVQLVESGGGVVQPGRSLRLSCAASGFTFSNHAMHWVRQAPGKGLEWVAVISYDGENTYYADSIEGRFTISRDNFKNTLFLQMYSLTADDTAMYFCARGGRRGHFTSYYLDYWGQGTLVTVSS VL: CDIQMTQSPSSLSASVGDRVTITCRASQNIDKYLNWYQQIPGKAPKLLIYAASSLHSGVPSRFSGSGSGTDFSLTISSLQPEDFAIYYCQQSYSSFRTFGQGTKLEIK', 'no binding'),
  ('NI-308.28G1 (antibody, V domains shown, Recombinant complete human IgG1, kappa) VH: QVQLQESGPRLVKPSETLSLTCTVAGGSVNSYYWTWIQQSPGKGLEWLGRIYIAGRTNYNPSLTSRIALSVDTSRNQLSLKLTSVTAADTAIYYCARWGAESGDYYYGVDVWGPGTLVTVSS VL: EIVMTQSPLSLPVTPGEPASISCKSSEGLLHSNGYTYLDWYLQKPGQAPQLLIFLASNRAAGVPDRFSGSGSGTDFTLKISRVEAEDVGVYYCMQAIQSPWTFGPGTKVEIK', 'no binding');

Origin of values: patent US20200010567A1
